# system_name: GCN2 (Homo sapiens)
# protocol_notes: TR-FRET biochemical assay for inhibition of GCN2 (Example 106, for Example 1-4BB)
# run_parameters: Table 9
pIC50: −log10 of the molar value.

# smiles_entry, pIC50
data = [
    ("Cc1ccc(S(=O)(=O)Nc2ccc(F)c(-c3ccc4c(C(=O)NCCCO)n[nH]c4c3F)c2F)c(C)n1", "5.60 to 6.30"),
    ("COc1ncc(CO)cc1S(=O)(=O)Nc1ccc(F)c(-c2ccc3c(C(=O)NCCCN(C)C)n[nH]c3c2F)c1F", "< 5.00"),
    ("Cc1ccc(S(=O)(=O)Nc2ccc(F)c(-c3ccc4c(C(=O)Nc5cnn(C)c5)n[nH]c4c3F)c2F)c(C)n1", "> 6.30"),
    ("COc1ncc(F)cc1S(=O)(=O)Nc1ccc(F)c(-c2ccc3c(C(=O)Nc4cccn(C)c4=O)n[nH]c3c2F)c1F", "5.00 to 5.60"),
]

###

Recorded IC50 values for a group of compounds are listed next.
# system_name: GCN2 (Homo sapiens, UniProt Q9P2K8)
# Sequence (Q9P2K8 whole entry): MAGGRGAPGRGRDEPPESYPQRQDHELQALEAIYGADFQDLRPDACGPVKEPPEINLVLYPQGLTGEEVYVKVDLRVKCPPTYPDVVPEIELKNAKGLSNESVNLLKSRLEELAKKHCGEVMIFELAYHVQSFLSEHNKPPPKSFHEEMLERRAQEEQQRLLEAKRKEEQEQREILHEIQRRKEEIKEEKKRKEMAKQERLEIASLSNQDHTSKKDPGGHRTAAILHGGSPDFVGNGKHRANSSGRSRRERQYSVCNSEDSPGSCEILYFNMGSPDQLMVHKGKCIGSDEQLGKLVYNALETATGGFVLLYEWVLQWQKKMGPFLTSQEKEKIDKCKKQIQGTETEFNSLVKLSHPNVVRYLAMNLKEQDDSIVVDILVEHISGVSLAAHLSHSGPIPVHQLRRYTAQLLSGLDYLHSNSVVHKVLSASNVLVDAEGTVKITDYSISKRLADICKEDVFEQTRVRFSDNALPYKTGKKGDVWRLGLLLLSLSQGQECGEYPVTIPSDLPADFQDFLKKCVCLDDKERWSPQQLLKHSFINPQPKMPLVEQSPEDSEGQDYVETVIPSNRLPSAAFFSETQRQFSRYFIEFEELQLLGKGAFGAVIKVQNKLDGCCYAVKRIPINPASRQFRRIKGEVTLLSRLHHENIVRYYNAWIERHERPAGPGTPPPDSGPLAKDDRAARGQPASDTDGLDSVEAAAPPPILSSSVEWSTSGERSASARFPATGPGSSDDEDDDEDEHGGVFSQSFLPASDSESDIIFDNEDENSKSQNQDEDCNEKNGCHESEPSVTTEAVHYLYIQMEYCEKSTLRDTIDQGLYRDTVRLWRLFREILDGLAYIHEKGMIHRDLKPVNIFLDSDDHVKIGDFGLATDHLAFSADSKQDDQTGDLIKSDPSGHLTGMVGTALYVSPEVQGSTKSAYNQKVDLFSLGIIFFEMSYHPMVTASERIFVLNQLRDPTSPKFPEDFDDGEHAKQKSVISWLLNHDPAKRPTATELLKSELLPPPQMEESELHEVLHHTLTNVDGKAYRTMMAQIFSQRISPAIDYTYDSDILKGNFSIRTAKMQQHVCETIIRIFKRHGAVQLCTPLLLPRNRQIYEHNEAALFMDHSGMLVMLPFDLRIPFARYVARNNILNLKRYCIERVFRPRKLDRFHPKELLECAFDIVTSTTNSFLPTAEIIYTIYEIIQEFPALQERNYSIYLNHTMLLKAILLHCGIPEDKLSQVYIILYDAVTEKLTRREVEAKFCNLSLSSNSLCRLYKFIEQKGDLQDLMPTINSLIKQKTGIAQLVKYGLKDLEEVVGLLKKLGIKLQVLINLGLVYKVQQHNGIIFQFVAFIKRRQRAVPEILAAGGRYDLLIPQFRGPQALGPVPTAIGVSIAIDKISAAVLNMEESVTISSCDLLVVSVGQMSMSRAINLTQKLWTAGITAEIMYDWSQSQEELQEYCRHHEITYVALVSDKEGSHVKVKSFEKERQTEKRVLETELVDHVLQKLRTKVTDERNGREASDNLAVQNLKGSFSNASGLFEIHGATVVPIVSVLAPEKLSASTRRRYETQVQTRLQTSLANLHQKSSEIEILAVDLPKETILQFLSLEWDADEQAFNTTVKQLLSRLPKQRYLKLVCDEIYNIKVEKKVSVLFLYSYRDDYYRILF
# protocol_notes: TR-FRET biochemical assay for inhibition of GCN2 (Example 106, for Example 1-4BB)
# run_parameters: Table 8

# compound, IC50
data = [
    ("COc1ncc(Cl)cc1S(=O)(=O)Nc1ccc(F)c(-c2ccc3c(-c4ccccn4)n[nH]c3c2F)c1F [Example 2CD]", "500 to 2500 nM"),
    ("COc1ncc(Cl)cc1S(=O)(=O)Nc1ccc(F)c(-c2ccc3c(C(=O)NCC(C)C)n[nH]c3c2F)c1F [Example 2CJ]", "< 500 nM"),
    ("O=S(=O)(Nc1ccc(F)c(-c2ccc3c(-c4ncc[nH]4)n[nH]c3c2F)c1F)c1ccccc1Cl [Example 2BP]", "< 500 nM"),
]

###

# system_name: GCN2 (Homo sapiens)
# protocol_notes: TR-FRET biochemical assay for inhibition of GCN2 (Example 106, for Example 1-4BB)
# run_parameters: Table 9
pIC50: −log10 of the molar value.
Attribute: pIC50

# molecule, pIC50
rows = [
    ("COc1ncc(Cl)cc1S(=O)(=O)Nc1cccc(-c2cc3[nH]nc(C(=O)NCCCO)c3cn2)c1F [Example 3BC]", "> 6.30"),
    ("COc1ncc(F)cc1S(=O)(=O)Nc1ccc(F)c(-c2ccc3c(C(=O)NC4CCN(C)CC4)n[nH]c3c2F)c1F [Example 3AJ]", "> 6.30"),
    ("Cc1ncc(F)cc1S(=O)(=O)Nc1ccc(F)c(-c2ccc3c(C(=O)NCCCN(C)C)n[nH]c3c2F)c1F [Example 3CI]", "5.60 to 6.30"),
    ("COc1ncc(C#N)cc1S(=O)(=O)Nc1cc(F)cc(-c2ccc3c(C(=O)NCCCN(C)C)n[nH]c3c2F)c1F [Example 3CE]", "< 5.00"),
    ("COc1ncc(Cl)cc1S(=O)(=O)Nc1nccc(-c2ccc3c(-c4ncc[nH]4)n[nH]c3c2F)c1F [Example 11]", "< 5.00"),
    ("Cc1ncc(F)cc1S(=O)(=O)Nc1cc(F)cc(-c2ccc3c(-c4ncc[nH]4)n[nH]c3c2F)c1F [Example 27]", "> 6.30"),
    ("COc1ncc(F)cc1S(=O)(=O)Nc1cc(F)cc(-c2ccc3c(C(=O)NCCCO)n[nH]c3c2F)c1F [Example 3AP]", "> 6.30"),
    ("Cc1ncc(F)cc1S(=O)(=O)Nc1ncc(F)c(-c2ccc3c(-c4ncc[nH]4)n[nH]c3c2F)c1F [Example 3F]", "> 6.30"),
    ("COc1ncc(Cl)cc1S(=O)(=O)Nc1ccc(F)c(-c2ccc3c(C(=O)Nc4nn[nH]n4)n[nH]c3c2F)c1F [Example 3CU]", "> 6.30"),
    ("COc1ncc(F)cc1S(=O)(=O)Nc1cc(F)cc(-c2ccc3c(C(N)=O)n[nH]c3c2F)c1F [Example 3AQ]", "> 6.30"),
]
